B1: glmS ribozyme (parent)
chain: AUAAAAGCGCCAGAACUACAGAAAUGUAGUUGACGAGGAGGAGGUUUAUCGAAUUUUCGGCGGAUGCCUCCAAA

- Variants of: B1
- test_protocol: kcat; higher = faster cleavage; RNA array
- condition_summary: with glucosamine-6-phosphate
Variants at the floor of the assay were thinned out.
measurement_name: kcat (s⁻¹)
API: value field is a number in s⁻¹; no unit string.

Example variants with recorded kcat:
{"variant_key": "C16G U54G", "value_unit": "s⁻¹", "readout_number": 0.00297}
{"variant_key": "G44U U56A", "value_unit": "s⁻¹", "readout_number": 0.000132}

Incoming: Fill blank: measured kcat of the variant U55G C67A is ____.
Outgoing: 0.000773

Incoming: Follow-up item: G32U U55A
Outgoing: 0.00193

Incoming: Follow-up item: G37U C71A
Outgoing: 1.95e-05

Incoming: Follow-up item: U30C A52G
Outgoing: 1.33e-05

Incoming: Follow-up item: A6U A42G
Outgoing: 0.000505

Incoming: Follow-up item: G40A G66C
Outgoing: 0.000903

Incoming: Follow-up item: `C71A`
Outgoing: 0.0153

Incoming: Follow-up item: U55A G59U
Outgoing: 1.92e-05

Incoming: Follow-up item: A14G U55C
Outgoing: 0.0632
